# test details: yeast display, Sf9 membrane polyspecificity reagent, FACS + sequencing; frameworks hold sequencing errors
experimental readout: polyreactivity (PSR sort gate)

primary sequence | reported
QVQLVESGGGLVQAGGSLRLSCAASGRIFGVYAMGWYRQAPGKERELVADISWSGSGTYADSVKGRFTISRDNAKNTVYLQMMSLKPEDTAVYYCNVDPAQIHAGYVGYDYWGQGTQVTVSS | low polyreactivity
QVQLVESGGGLVQAGGSLRLSCAASGYIFYGYAMGWYRQAPWKESEWVAAITVRGGSTYYADSVKGRFTISRDKAKNTVYLQKNSQKPEDTAVYYCAAAPQFTFGVGYWGQVTQVTVSS | low polyreactivity
QVQLVESGGGLVQAGGSLRLSCAASGRIFASYAMGWYRQAPGKERELVASISWGGGSRTYADSVKGRFTISRDNAKNTVYLQMNSLKPEDTAVYYCAADVHYTFGMDYWGQGTQVTVSS | high polyreactivity
QVQLVESGGGLVQAGGSLRLSCAASGNTFATYAMGWYRQAPGKERELVAGITVDGASTNYADSVKGRFTISRDNAKNTVYLQMNSLKPEDTAVYYCNADYTTQVYDSTWPGDFGYWGQGTQVTVSS | high polyreactivity
QVQRVESGGGLVQAGGSLRLSCAASGSTFYDNTMGWYRPAPGKERELVAAITGTGGNTYYADSVKGRFTISRDNAKNTDYLQMNSLKPEDTAVYYWNRVPVYYYRYGYWGQGTQVTVSS | low polyreactivity

###

# test details: yeast display, Sf9 membrane polyspecificity reagent, FACS + sequencing; frameworks hold sequencing errors

primary sequence | polyreactivity (PSR sort gate)
QVQLVESGGGLVQAGGSLRLSCAASGRIFNLYAMGWYRQAPGKERELVAAISYSGGRTYYADSVKGRFTISRDNAKNTVYLQMNSLKPEDTAVYYCNTVRGSVRQAGVGYDYWGQGTQVTVSS | high polyreactivity
QVQLVESGGGLVQAGGSLRLSCAASGRIFAYYAMGWYRQAPGTERELVAAITRRSGGITYYADSVKGRFTISRDNAKNTVYLQMNSLKPEDTAVYYCAARYRLSGKYRFTYDYWGQGTQVTVSS | high polyreactivity
QVQLVESGGVLVQAGASLRLSCAASGLTFAVYTMGGYRQAPGKEMELVAAITWDGGITYYADSVKGRFTISRDNAKYTVYLQMNSLKPEDTAVYYCAADYALGEVYWYNYWGQGTQVTVSS | low polyreactivity
QVQLVESGGGLVQAGGSLRLSCAASGSIFVSNAMGWYRQAPGKERELVASISQDGGSTYYADSVKGRFTISRDNAKNTVYLQMNSLKPEDTADYYCAAKAEYYYYNGGTTYLVRYYYWGQGTQVTVSS | low polyreactivity
QVHLVESGGGLVQAGGSLRLSCDASGRLIARYAMGWHRPAPGKERELVAAISSGGRTYYADSVKGRFTISRDNAKNTVYLQMNSLKPEDTAVYYCAASSGGATRGHDYWGQGTQVTVSS | high polyreactivity

###

# test details: yeast display, Sf9 membrane polyspecificity reagent, FACS + sequencing; frameworks hold sequencing errors

primary sequence | polyreactivity (PSR sort gate)
QVQLVESGGGLVQAGGSLRLSCAASGRTFQWYAMGWYRQAPGKERELVAAISWGGGRTYYADSVKGRFTISRDNAKNTVYLQMNSLKPEDTAVYYCAASYRKLPDKKRYGYWGQGTQVTVSS | high polyreactivity
QVQLVESGGGLVQAGGSLRLSCAASGRTFLRYAMGWSRQAPGKERELVAAISSRGGRTYYADSVKGRFTISRDNAKNTVYLQMNILKPEDTAVYYCNARYSPRTGRGRHVTYYYWGQGTQVTVSS | high polyreactivity
QVQLVESGGGLVHAGGSLRLSCAASGSIFFQYGMGWYRHAPGKEREYVAAISVSGGSTYYADSVKGRFTISRDNAKNSVYLQMNSLKPEDTAVYYCAADGSTDYVYSPPIDEYDFWGQGTQVTVSS | low polyreactivity
QVQLVESGGGLVQAGGSLRLSCAASGRIFGTNAMGWYRQAPRKERELVATITRGGGNTYYADSVKGRFTISRDNAKNTVYLQLNSLKPEDTAVYYCAAYDSVQKYWILGFDYWGQGTQVTVSS | low polyreactivity
QVQLVESGGGLVQAGGSLRLSCAASGSIFYGYVMGWYRQAPGKERELVAAISRSGGRTYYADSVKGRFTISRDNAKNTVYLQMNSQKPEDTAVYDCNARQAGTPYKYAYYGRYYWGQGTQVTVSS | high polyreactivity
QVQLVESGGGLVQAGGSLRLSCAASGFTFNYAMGWYRQAPGKERELVAAISSAGTTYYADSVKGRFTISRDNAKNTVYLQMNSLKPEDTAVYYCAALARPKQDRYRYYYWGQGTQVTVSS | high polyreactivity
QVQLVESGGGLVQAGGSLRLSCAASGFIFSTYAMGWYRQAPGKERELVSAISCSTGSTYYADSVKGRFTISRDNAKNTVYLQMNSLKPEDTAVYYCNALRRPSTEGRDYWGQGTQVTVSS | high polyreactivity
QVQLVESGGGLVQAGGSLRLSCAASGLIFPYNAMGWYRQAPGKERELVAAIDTRGSSTYYADSVKGRFTISRDNAKNTVYLQMNSLKPEDTAVYYCAADYRVQLRKEYDYWGQGTQVTVSS | high polyreactivity
QVQLVESGGGLVQAGGSLRLSCAASGRTFRRYAMGLYRQAPGKERELVASISTSGGSTYADSVKGRFTISRDNAKNTVYLQMNSLKPEDTAVYYCAVRSPRYVRNGDYWGQGTQVTVSS | high polyreactivity
QVQLVVSGGGLVQAGGSLRLSCAASGSTFSRNAMGWYRQAPGKERELVASISWSGARTYYADSVKRRFTISRDNAKNTVYLQMNSLKPEDTAVYYCAKFRSYRGPYNFWGQGTQVTVSS | high polyreactivity
QVQLVESGGGLVQAGGSLRLSCAASGSIFDHYAMGWYRQAPGKERELVAAITAICDSTYYADSVKGRFTISRDNAKNTVYLEKNSLKAEDTAVYYCAVTYGGSDGGDYWGQGTQGTVSS | low polyreactivity
